system: HIV-1 (IIIB); test: Inhibition of HIV-1 syncytium formation in CEM cells; type: cell-based; details: Human immunodeficiency virus 1, CCRF-CEM; HIV-1 (IIIB) infected CEM cells, syncytium formation, day four post infection; read-out: EC50 (μg/ml) HIV-1
Measured endpoint: EC50

Challenge: Supply reported EC50 belonging to this compound: Cc1cc(CS(=O)(=O)c2cccc[n+]2[O-])ccc1[N+](=O)[O-]
Response given: 3.1 µg/mL

Can you give me EC50 for all of these, one by one?
1. Cc1ccc(C)c(C(Cl)S(=O)(=O)c2cccc(C)[n+]2[O-])c1 (stereo not drawn)
2. Cc1ccc(C)c(C(C)S(=O)(=O)c2c(Cl)ccc[n+]2[O-])c1 (stereo not drawn)
3. Cc1ccc(N)cc1C(C)S(=O)(=O)c1cccc[n+]1[O-] (stereo not drawn)
4. Cc1ccc(C)c(C(Cl)S(=O)(=O)c2ccccn2)c1 (stereo not drawn)
5. Cc1ccc(CS(=O)(=O)c2cccc[n+]2[O-])cc1[N+](=O)[O-]
6. Cc1ccc(C)c(C(Cl)S(=O)(=O)c2c(Cl)ccc[n+]2[O-])c1 (stereo not drawn)
7. O=[N+]([O-])c1cc(CS(=O)(=O)c2cccc[n+]2[O-])ccc1Cl
8. Cc1ccc(C)c(C(C)S(=O)(=O)c2cc(C)cc(C)[n+]2[O-])c1 (stereo not drawn)

Response given:
2.8 µg/mL
> 0.8 µg/mL
20 µg/mL
0.9 µg/mL
2.3 µg/mL
> 4 µg/mL
1.5 µg/mL
≥ 20 µg/mL
